self-cleavage: recorded values
B1: CPEB3 Ribozyme (parent)
chain: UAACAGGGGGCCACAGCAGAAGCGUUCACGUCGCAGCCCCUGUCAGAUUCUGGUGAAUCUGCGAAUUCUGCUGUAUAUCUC

variants of: B1; test: self-cleavage, relative activity (ratio to wild type); higher = more cleavage; in vitro, sequencing

{"columns": ["MUTATION_DESCRIPTOR", "self-cleavage"],
 "data": [
  ["A20C U26A", 0.21],
  ["C29G U41A", 0.33],
  ["C11G U26A", 0.34]
]}
